method: IUF_NPC2-5_cell_number_120hr: Cell Number Assessment at 120 hours in the Leibniz Research Institute for Environmental Medicine (IUF) Neural Progenitor Cell Migration and Differentiation Assay (NPC2-5) (AID 2284308);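 note: count of Hoechst-stained nuclei in migration zone around plated human neural progenitor spheres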
Activity calls are given as the source filed them. Rule for the calls: active = hit-call score of the fitted dose curve at least 0.9, where 1 is the maximum; inactive = score below 0.9.
The reply should name one outcome from active, inactive

Query: Test call, this compound: CC1(C)C(C=C(Cl)Cl)[C@H]1C(=O)O[C@H](C#N)c1cccc(Oc2ccccc2)c1 (some centres not stated)
Reply: inactive

Query: Hi, do you know how CCOP(=O)(OCC)SCSC(C)(C)C came out in this test?
Reply: inactive

Query: Look up the recorded call for C[n+]1ccc(-c2cc[n+](C)cc2)cc1 in this test.
Reply: inactive

Query: Outcome logged for CCOP(=O)(OCC)SCSCC in this assay:
Reply: inactive

Query: # lookup: test call for CC1(C)[C@H](C=C(Cl)Cl)[C@H]1C(=O)OCc1c(F)c(F)cc(F)c1F
Reply: inactive

Query: Would you mind telling me which call this test gave CC(C)CCCCCCCOP(=O)(Oc1ccccc1)Oc1ccccc1 ?
Reply: inactive

Query: So what was the verdict on CNC1(c2ccccc2Cl)CCCCC1=O (configuration not stated) in this test?
Reply: inactive

Query: State the result this test recorded for COP(=O)(OC)SCN1C(=O)c2ccccc2C1=O .
Reply: inactive

Query: What call does the record list for Brc1ccc(Oc2cc(Br)c(Br)cc2Br)c(Br)c1 ?
Reply: inactive

Query: recorded result category for CCOP(=O)(OCC)OC(Cl)C(Cl)(Cl)Cl (configuration not stated) in this test
Reply: active

Query: Per the assay record, what outcome was assigned to C[n+]1ccc(-c2ccccc2)cc1 ?
Reply: inactive

Query: Could you check what this test reported for CC1(C)C(C=C(Cl)c2ccc(Cl)cc2)C1C(=O)OC(C#N)c1ccc(F)c(Oc2ccccc2)c1 (configuration not stated) ?
Reply: inactive
